- Test system: Amaranthus viridis
- Measurement Notes: Test Example 4: herbicidal effect test by treatment of leave and stem in dry field farming (seven days after seeding)
- Format: in vivo
- Condition Description: 120 g/10a active ingredient; emulsion sprayed seven days after seeding; evaluated 14 days after treatment
Readout Name: herbicidal effect (herbicidal rate), Amaranthus viridis (%)
Reply numerically in %, unit not repeated.

* Cc1c(Cc2cccc(Cl)c2NS(=O)(=O)C(F)(F)F)c(=O)on1C(C)C | 0

herbicidal effect (herbicidal rate), Amaranthus viridis reading for `COC(=O)N(c1ccccc1Cc1c(C)n(C(C)C)oc1=O)S(=O)(=O)C(F)(F)F` : 30

molecule COCC(C)n1oc(=O)c(Cc2ccccc2N(C(=O)Oc2ccccc2)S(=O)(=O)C(F)(F)F)c1C (stereo not drawn) , herbicidal effect (herbicidal rate), Amaranthus viridis observed: 40

Per the record, CCC(C)n1oc(=O)c(Cc2ccccc2N(C(=O)C2CCCCC2)S(=O)(=O)C(F)(F)F)c1C (stereo not drawn) has herbicidal effect (herbicidal rate), Amaranthus viridis of 40

Briefly, herbicidal effect (herbicidal rate), Amaranthus viridis measured for `Cc1c(Cc2ccccc2N(S(C)(=O)=O)S(=O)(=O)C(F)(F)F)c(=O)on1CC(C)(C)C` : 40

* * *

# Herbicidal rate (%) Echinochloa crus-galli annotations
- System: Echinochloa crus-galli
- Measurement Notes: Test Example 2: herbicidal effect test by treatment during growing period in paddy rice cultivation (seven days after seeding)
- Assay type: in vivo
- Condition Description: 120 g/10a active ingredient, assessed 14 days after treatment, dry weight vs untreated area
Unit % implied. Number only.

* CCc1c(Cc2ccccc2NS(=O)(=O)C(F)(F)F)c(=O)on1C(C)C [Compound 1-63] | 80
* Cc1c(Cc2cc(F)ccc2NS(=O)(=O)C(F)(F)F)c(=O)on1Cc1ccccc1 [Compound 1-31] | 50
* CCOC(=O)N(c1ccccc1Cc1c(C)n(C(C)COC)oc1=O)S(=O)(=O)C(F)(F)F (stereo not drawn) [Compound 1-615] | 90
* CC(=O)N(c1ccccc1Cc1c(C)n(C(C)(C)C)oc1=O)S(=O)(=O)C(F)(F)F [Compound 1-293] | 90
* COCCOC(=O)N(c1ccccc1Cc1c(C)n(CCSC)oc1=O)S(=O)(=O)C(F)(F)F [Compound 1-735] | 90

# Herbicidal rate (%) Echinochloa crus-galli (molecule: Cc1c(Cc2ccccc2N(C(=O)OCc2ccccc2)S(=O)(=O)C(F)(F)F)c(=O)on1CC(C)C [Compound 1-785] ) is 90

* * *

- Test system: Echinochloa crus-galli
- Measurement Notes: Test Example 2: herbicidal effect test by treatment during growing period in paddy rice cultivation (seven days after seeding)
- Assay type: in vivo
- Condition Description: 120 g/10a active ingredient, assessed 14 days after treatment, dry weight vs untreated area
Readout Name: Herbicidal rate (%) Echinochloa crus-galli
Respond numerically; units are % and should not be typed.

Use these answered entries as a reference point.
* Cc1c(Cc2ccccc2N(S(=O)(=O)C(F)(F)F)S(=O)(=O)C(F)(F)F)c(=O)on1CCc1ccccc1 | 90
* CCC(CC)Cn1oc(=O)c(Cc2ccccc2N(CC)S(=O)(=O)C(F)(F)F)c1C | 80
* CCC(CC)n1oc(=O)c(Cc2ccccc2N(C(=O)CC(C)C)S(=O)(=O)C(F)(F)F)c1C | 90

Memo: `CC(C)Cn1oc(=O)c(Cc2ccccc2NS(=O)(=O)C(F)(F)F)c1C(F)(F)F` , reported Herbicidal rate (%) Echinochloa crus-galli: 80

Entry `Cc1c(Cc2ccccc2N(S(=O)(=O)C(F)(F)F)S(=O)(=O)C(F)(F)F)c(=O)on1CCOCC(C)C` — recorded Herbicidal rate (%) Echinochloa crus-galli = 90

// sample Cc1c(Cc2ccccc2N(S(=O)(=O)C(F)(F)F)S(=O)(=O)C(F)(F)F)c(=O)on1C(C)c1ccc(F)cc1 (stereo not shown) , its Herbicidal rate (%) Echinochloa crus-galli was 90

Consider `Cc1c(Cc2ccccc2NS(=O)(=O)C(F)(F)F)c(=O)on1Cc1ccc(C(F)(F)F)cc1` . Its measured Herbicidal rate (%) Echinochloa crus-galli is 40
